Exercise: for every item that follows, state its recorded Kb.
target: Histamine H2 receptor (Rattus norvegicus); assay: Antagonist at histamine H2 receptor in rat uterus assessed as inhibition of histamine-induced response; format: tissue-based
Use µM as the unit, but write only the number.

Inquiry: Which measured Kb belongs to `CNC(=S)NCCCCc1nc[nH]c1C` , tested on Histamine H2 receptor (Rattus norvegicus)?
Reply text: 10.7

Inquiry: Hello, I am looking for reported Kb with Histamine H2 receptor (Rattus norvegicus) for `CN/C(=N\C#N)NCCSCc1c[nH]cn1` . Could you help?
Reply text: 1.6

Inquiry: Give Histamine H2 receptor (Rattus norvegicus) Kb for `CN/C(=N\CCSCc1nc[nH]c1C)NC#N`
Reply text: 0.81

Inquiry: Can you look up Kb on Histamine H2 receptor (Rattus norvegicus) for `CNC(=N)NCCSCc1nc[nH]c1C` ?
Reply text: 5.5

Inquiry: Give recorded Kb with Histamine H2 receptor (Rattus norvegicus) for the following compound: `C/N=C(\S)NCCCCc1c[nH]cn1`
Reply text: 6.6
